Recorded values, source paper PMC4686794.

- targetSystem: TATA-binding protein (TBP) (Homo sapiens, UniProt P20226 1-339)
- Sequence (P20226 whole entry): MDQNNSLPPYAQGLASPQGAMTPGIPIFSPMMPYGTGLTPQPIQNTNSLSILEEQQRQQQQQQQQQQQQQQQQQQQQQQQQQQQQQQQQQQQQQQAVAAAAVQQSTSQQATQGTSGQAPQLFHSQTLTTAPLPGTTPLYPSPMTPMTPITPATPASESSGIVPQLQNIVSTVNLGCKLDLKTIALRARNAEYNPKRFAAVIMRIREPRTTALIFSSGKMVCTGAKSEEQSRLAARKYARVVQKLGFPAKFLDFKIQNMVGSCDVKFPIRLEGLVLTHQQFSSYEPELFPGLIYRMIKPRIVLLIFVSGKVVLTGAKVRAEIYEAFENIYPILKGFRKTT
- testName: EMSA (kinetic, kd/ka); 5 mM Mg2+; ka 30e3 M-1s-1, kd 6e-4 s-1; 20 mM HEPES-KOH pH 7.6, 5 mM MgCl2, 70 mM KCl, 1 mM DTT, 100 ug/mL BSA, 0.01% NP-40, 5% glycerol, 25 C; 0.3 nM active TBP, ODN 10-60 nM
- runConditions: protein: recombinant; label: 32P on both strands; blunt

{"binder": "GCG -41g (rs183433761 minor) (dsDNA) DNA 1: AGCTGGAGAGTGTATAAAAGCAGTGC DNA 2: GCACTGCTTTTATACACTCTCCAGCT", "Kd (nM)": 18}
